- Test system: SK-MEL-2 melanoma
- assay_name: NCI-60 one-dose screen, 48 h (100 = growth as untreated, 0 = no growth, -100 = all killed)
- experimental_context: 10 µM unless noted
- Protocol: Growth inhibition of the SK-MEL-2 human tumor cell line is measured as a screen for anti-cancer activity. Cells are grown in 96 well plates and exposed to the test compound for 48 hours. Compounds are tested at a single concentration, which is 10^-5 M for most compounds. The reported endpoint is percent growth (GI% or GIPRCNT), where numbers from 0 - 100% represent growth inhibition, and numbers from -100% - 0 represent cell death. For example, a value of 40 represents 60% growth inhibition. […]
About 83,000 compounds went through this panel and 20% of them were active in at least one assay; those are over-represented in the sample as a whole.
Could you please report measured growth for the items listed next?
Report the value in % with no unit label.

stdin: Answer with the recorded growth for the compound listed here: `Nc1ncnc(N)c1NC(=O)c1ccc(OCc2ccccc2)cc1`
stdout: 93.1

stdin: Answer with the recorded growth for the compound listed here: `COc1ccc(/C(C#N)=C/c2nc3c(N4CCOCC4)nc(Cl)nc3n2C)cc1OC`
stdout: 42.7

stdin: Answer with the recorded growth for the compound listed here: `O=c1c2cccc(F)c2sc2c(N3CCNCC3)nc3ccccc3c12`
stdout: 95

stdin: Answer with the recorded growth for the compound listed here: `COc1ccc(C(=O)Nc2ccc3nc(N4CCCCC4)cc(C)c3c2)cc1OC`
stdout: 119

stdin: Answer with the recorded growth for the compound listed here: `O=c1oc2ccc(Cl)cc2c(=O)n1-c1ccc(I)cc1F`
stdout: -24.3

stdin: Answer with the recorded growth for the compound listed here: `O=C1C(Cl)=C(NCc2ccco2)C(=O)c2ccccc21`
stdout: 93.4

stdin: Answer with the recorded growth for the compound listed here: O=CCCCC(O)C=O (stereo not given)
stdout: 105

stdin: Answer with the recorded growth for the compound listed here: `COc1ccc(-c2cn3c(C(=O)Nc4ccccc4Cl)c(-c4ccccc4)c4c3n2CCCC4)cc1`
stdout: 104

stdin: Answer with the recorded growth for the compound listed here: COC(=O)[C@H](NC(=O)C1(C)CCC[C@]2(C)[C@H]3C[C@H]4C(C(C)C)=C[C@]3(CC[C@@H]12)[C@@H]1C(=O)CCC(=O)[C@@H]14)C(C)C (stereo not given in full)
stdout: 116

stdin: Answer with the recorded growth for the compound listed here: O=S(=O)(Nc1ncccn1)c1ccc(NC2Nc3nc4ccccc4nc3S2)cc1 (stereo not given)
stdout: 106

stdin: Answer with the recorded growth for the compound listed here: O=C(Cc1ccccc1)NC(c1ccc(Cl)cc1)c1c(O)ccc2ccccc12 (stereo not given)
stdout: -3.92

stdin: Answer with the recorded growth for the compound listed here: CC(C)(C)c1ccc(C2CC(=O)C3=C(C2)Nc2ccccc2N(C(=O)c2ccccc2Cl)C3c2ccc(F)cc2)cc1 (stereo not given)
stdout: -11.5

stdin: Answer with the recorded growth for the compound listed here: `O=c1oc2ccc(-c3ccc(F)cc3F)cc2c(=O)n1-c1cccc(C(F)(F)F)c1`
stdout: -15.9

stdin: Answer with the recorded growth for the compound listed here: Cc1ccc(C2CC(c3ccc(Nc4nc(NCCO)nc(Nc5ccc(Cl)cc5)n4)cc3)=NN2c2cc(Cl)cc(Cl)c2)cc1 (stereo not given)
stdout: 122

stdin: Answer with the recorded growth for the compound listed here: `COc1nccc2cc3c(=O)n4c(cc5ccccc54)c(=O)n3c12`
stdout: 94.3

stdin: Answer with the recorded growth for the compound listed here: `CCCCN1CCN(c2ccc3nc(-c4ccc5nc(-c6ccc(C(F)(F)F)cc6)[nH]c5c4)[nH]c3c2)CC1`
stdout: -47.5

stdin: Answer with the recorded growth for the compound listed here: COc1ccc(N2C(=O)CC(c3cc(OC)c(OC)c(OC)c3)C3C2=NC(=O)N3C)cc1 (stereo not given)
stdout: 116

stdin: Answer with the recorded growth for the compound listed here: `CN1CCN(Cc2ccc(NC(=O)c3[nH]ncc3Nc3cc(OC4CCCC4)ncn3)cc2)CC1`
stdout: 49.4

stdin: Answer with the recorded growth for the compound listed here: `Brc1ccc(Nc2nc3ccccc3nc2Nc2ccc(Br)cc2)cc1`
stdout: -58

stdin: Answer with the recorded growth for the compound listed here: `COc1ccc(C)c2sc(N(Cc3cccnc3)C(=O)c3ccc(C#N)cc3)nc12`
stdout: 13.1

---

- System: UACC-257 melanoma
- assay_name: NCI-60 one-dose screen, 48 h (100 = growth as untreated, 0 = no growth, -100 = all killed)
- experimental_context: 10 µM unless noted
The panel holds about 83,000 compounds, 20% with a hit somewhere; the sample as a whole holds those more often.
result_type: growth (%)
Report the value in % with no unit label.

stdin: Answer with the recorded growth for the molecule listed here: N#Cc1c(N)nc2c(c1N)C(c1ccc(F)cc1)c1ccc(N)cc1O2 (stereo unspecified)
stdout: 102

stdin: Answer with the recorded growth for the molecule listed here: `O=C(/C=C/c1ccc(Cl)cc1)c1ccc(Nc2nc(NCCO)nc(Nc3ccc(Cl)cc3)n2)cc1`
stdout: 95.8

stdin: Answer with the recorded growth for the molecule listed here: NC1C(N)C(N)C1N (stereo unspecified)
stdout: 101

stdin: Answer with the recorded growth for the molecule listed here: CCOc1cc2c(cc1OCC)C(c1cc(C)c(O)c(C)c1)NCC2 (stereo unspecified)
stdout: 94.3

stdin: Answer with the recorded growth for the molecule listed here: `CCOC(=O)CSc1c(-c2ccccc2)c2cc(Cl)ccc2[nH]c1=O`
stdout: 120

stdin: Answer with the recorded growth for the molecule listed here: `O=C(Cn1cc(COc2ncnc3c2cnn3-c2ccccc2)nn1)Nc1ccccn1`
stdout: 98.4

---

- System: HS 578T breast
- assay_name: NCI-60 one-dose screen, 48 h (100 = growth as untreated, 0 = no growth, -100 = all killed)
- experimental_context: 10 µM unless noted
This is part of a sample that, as a whole, favours compounds with a hit. Of some 83,000 tested, about 20% had one in any assay.
The label Yes is reserved for growth strictly under 20%; No covers values equal to or above it.

stdin: For `N#C/C(=C\c1c(-c2ccccc2)[nH]c2ccccc12)S(=O)(=O)c1ccccc1` , is the recorded growth below the cut-off of 20%?
stdout: Yes

stdin: For `COc1ccc(Cn2c(Br)c3c(c2Br)-c2nc(N)sc2CC3)cc1` , is the recorded growth below the cut-off of 20%?
stdout: No

stdin: For `O=c1c2cc(F)ccc2sc2c(NCCN3CCCC3)nc3ccccc3c12` , is the recorded growth below the cut-off of 20%?
stdout: No

stdin: For `CNC(=O)c1cc(Oc2ccc(CC(=O)Nc3cc(C(C)(C)C)cn3C)cc2)ccn1` , is the recorded growth below the cut-off of 20%?
stdout: No

stdin: For `CCOc1ccccc1CN1CCc2nc3cc(C(C)(C)C)[nH]n3c(=O)c2C1` , is the recorded growth below the cut-off of 20%?
stdout: No

stdin: For `COC(=O)/C(CCC=C(C)C)=C1\[C@@H](OC(C)=O)C[C@@]2(C)[C@H]1C[C@@H](O)[C@H]1[C@@]3(C)CC[C@H](NC(=O)c4cnccn4)[C@@H](C)[C@@H]3CC[C@@]12C` , is the recorded growth below the cut-off of 20%?
stdout: No

stdin: For `O=c1cc(NC2CCN(CCCc3ccccc3)CC2)c2cc(Cl)ccc2o1` , is the recorded growth below the cut-off of 20%?
stdout: Yes

stdin: For O=C(NCc1ccco1)C1CN(c2ccc(Cl)cc2)N(c2ccc(Cl)cc2)C1=O (centres undefined) , is the recorded growth below the cut-off of 20%?
stdout: No

stdin: For `O=c1oc2ccc(Br)cc2c(=O)n1-c1ccc(Br)cc1F` , is the recorded growth below the cut-off of 20%?
stdout: Yes

---

- Test system: U251 CNS
- assay_name: NCI-60 one-dose screen, 48 h
- experimental_context: 10 µM unless noted
This is part of a sample that, as a whole, favours compounds with a hit. Of some 83,000 tested, about 20% had one in any assay. Active and inactive are the calls of the source. Rule for the calls: active = growth percent below 10; inactive = the rest.
Hello, when you answer, please use one of the following outcomes: active, inactive

stdin: Dear all, I need the recorded test outcome for `Nc1ccccc1-c1ccc(-c2ccc(Cl)cc2)c2c1[nH]c1ccccc12` , thank you.
stdout: inactive

stdin: Dear all, I need the recorded test outcome for `COc1ccc(CCN2C(=O)CCSC2=S)cc1` , thank you.
stdout: inactive

stdin: Dear all, I need the recorded test outcome for `CCCc1c(C)c2sc(=O)[nH]c2[nH]c1=O` , thank you.
stdout: inactive

stdin: Dear all, I need the recorded test outcome for CCN1C(=O)N(c2ccccc2)C2Nn3c(s/c(=C4\C(=O)N(C(C)C)c5ccccc54)c3=O)=NC21 (configuration not stated) , thank you.
stdout: inactive

stdin: Dear all, I need the recorded test outcome for `O=C1/C(=C/c2ccc(O)cc2)COc2ccc(O)cc21` , thank you.
stdout: inactive

stdin: Dear all, I need the recorded test outcome for `CNC(=O)c1cc(Oc2ccc(CC(=O)Nc3cc(C(C)(C)C)cn3C)cc2)ccn1` , thank you.
stdout: inactive

stdin: Dear all, I need the recorded test outcome for `COc1cccc2cc(N(C)c3nc(C)nc4ccsc34)ccc12` , thank you.
stdout: inactive

stdin: Dear all, I need the recorded test outcome for `CC(=O)O[C@@H]1/C=C/C(=O)N[C@@H](C)CCC/C=C/[C@@H]2CCC[C@H]21` , thank you.
stdout: inactive

stdin: Dear all, I need the recorded test outcome for `O=c1c(-c2nc3ccccc3[nH]2)cc2ccccc2n1Cc1cn(Cc2ccc(N3CCOCC3)cc2)nn1` , thank you.
stdout: inactive

stdin: Dear all, I need the recorded test outcome for `Fc1cccc(COc2ccc(Nc3ncnc4onc(-c5ccccc5)c34)cc2)c1` , thank you.
stdout: inactive

stdin: Dear all, I need the recorded test outcome for `COc1ccc2c(c1)C=C1CSCC3=Cc4cc(OC)ccc4OC13O2` , thank you.
stdout: inactive

stdin: Dear all, I need the recorded test outcome for `CCOC(=O)C1=CN(C)C=C(C(=O)OCC)C1c1cc(Br)c(OCC)c(OC)c1` , thank you.
stdout: inactive

stdin: Dear all, I need the recorded test outcome for `COc1ccc(-c2nocc2-c2cccs2)cc1` , thank you.
stdout: inactive

stdin: Dear all, I need the recorded test outcome for `O=C(Nc1ccsc1C(=O)NC1CCCCC1)c1ccc(F)cc1` , thank you.
stdout: inactive

stdin: Dear all, I need the recorded test outcome for `O=c1oc2ccc(I)cc2c(=O)n1-c1ccc(Cl)cc1F` , thank you.
stdout: active

stdin: Dear all, I need the recorded test outcome for `Cc1[nH]c2ccccc2c(=O)c1CC=C(Cl)Cl` , thank you.
stdout: inactive

stdin: Dear all, I need the recorded test outcome for `O=C(Cn1cc(COc2ncnc3c2cnn3-c2ccccc2)nn1)Nc1ccccn1` , thank you.
stdout: inactive

stdin: Dear all, I need the recorded test outcome for `O=C(Cn1cc(COc2ncnc3c2cnn3-c2ccccc2)nn1)Nc1cccc2ccccc12` , thank you.
stdout: inactive

stdin: Dear all, I need the recorded test outcome for `CCCCCCc1cc2cc(-c3csc(/C=C/c4ccccc4)n3)c(=O)oc2cc1O` , thank you.
stdout: active

stdin: Dear all, I need the recorded test outcome for Cc1ccc(NCCNCC(O)CO)c2c(=O)c3ccccc3sc12 (configuration not stated) , thank you.
stdout: active

stdin: Dear all, I need the recorded test outcome for `Brc1ccc(Oc2ccc(Nc3ncnc4onc(-c5ccccc5)c34)cc2)cc1` , thank you.
stdout: inactive

stdin: Dear all, I need the recorded test outcome for O=C(c1nc2ccccc2[nH]1)C1C(c2cccc([N+](=O)[O-])c2)C2CC3CCCCC3N2[C@@]12C(=O)Nc1cc(Cl)ccc12 (some centres not stated) , thank you.
stdout: inactive
